Test system: ZAK
details: concentration: 1 μM, replicates: in singlicate; n = 1;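 note: KINOMEscan kinase panel screen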
readout_label: %Inh (%)
Give the number; % is assumed, so skip it.

# %Inh (molecule: Cc1nc(N(C)[C@H]2CN(C(=O)CC#N)CC[C@H]2C)c2cc[nH]c2n1 ) is 0

# %Inh (molecule: Nc1n[nH]c2nnc(-c3ccccc3)c(-c3ccccc3)c12 ) is 5

# %Inh (molecule: CCC(=O)c1c(-c2ccccc2)c2cc(Cl)ccc2c(=O)n1Cc1cc(C(=O)NC2CC2)n(C)n1 ) is 23

# %Inh (molecule: CC(C)(C)c1ccc(C(=O)Nc2cn3cc(-c4ccccc4)ccc3n2)cc1 ) is 14

# %Inh (molecule: Cl.c1ccc(Cn2cnc3cc(Nc4ncnc5ccccc45)ccc32)cc1 ) is 0

# %Inh (molecule: Nc1ncnc2c1ncn2-c1ccc(Cl)cc1 ) is 0

# %Inh (molecule: Nc1ncnc2c1ncn2-c1cccc2ccccc12 ) is 0

# %Inh (molecule: COc1cc2nccc(Nc3cccc(Oc4ccccc4)c3)c2cc1OC.Cl ) is 17

# %Inh (molecule: O=C1NC(=O)C(c2ccccc2)=C1Nc1cccc(O)c1 ) is 8

# %Inh (molecule: Fc1cccc(CSc2nnc(-c3ccc4c(c3)CCO4)o2)c1 ) is 0

###

Test system: MARK2
details: concentration: 1 μM, replicates: in singlicate; n = 1
readout_label: %Inh (%)
Give the number; % is assumed, so skip it.

# %Inh (compound: Nc1ncnc2c1ncn2-c1cccc(F)c1 ) is 0

# %Inh (compound: Nc1nccc2scc(-c3ccc4c(c3)CCN4C(=O)Cc3ccccc3)c12 ) is 1

# %Inh (compound: COc1cc2ncn(-c3cc(OCc4ccncc4Br)c(C(N)=O)s3)c2cc1OC ) is 37

# %Inh (compound: CCCNC(=O)Nc1ccc(Oc2ncnc3ccn(C)c23)cc1 ) is 6

# %Inh (compound: CCC(=O)c1c(-c2ccccc2)c2cc(Cl)ccc2c(=O)n1Cc1ccc(C(=O)O)cc1 ) is 3

# %Inh (compound: OCCCNc1nccc(-c2c(-c3cccc(C(F)(F)F)c3)nn3cc(C(F)(F)F)ccc23)n1 ) is 0

# %Inh (compound: CCc1ccc(-c2ccc3c(c2)-c2nn(C)cc2S(=O)(=O)N3C)cc1 ) is 0

# %Inh (compound: Cc1ccc(Oc2ccc(Nc3ncnc4cc[nH]c34)cc2C)cn1 ) is 4

# %Inh (compound: COc1ccc(CNC(=O)NC2CCN(c3ccnc(Nc4ccc(F)cc4)n3)C2)cc1 (stereo not shown) ) is 0

# %Inh (compound: COC(=O)c1c(-c2ccccc2)c2cc(Br)ccc2c(=O)n1Cc1ccc(S(C)(=O)=O)cc1 ) is 0

# %Inh (compound: COc1cccc(C2=C(N(C)c3ccccc3)C(=O)NC2=O)c1 ) is 0

# %Inh (compound: Cc1ccccc1COc1cc(-n2cnc3cc(Cl)ccc32)sc1C(N)=O ) is 0

# %Inh (compound: Cc1cccc(-c2cc(-c3c[nH]nc3-c3ccccn3)ccn2)c1 ) is 0

# %Inh (compound: O=C(NCc1cccs1)c1cc(C(=O)c2c(Cl)cccc2Cl)c[nH]1 ) is 0

# %Inh (compound: CCS(=O)(=O)c1ccc(OC)c(Nc2ncc(-c3ccc(F)cc3)o2)c1.Cl ) is 0

# %Inh (compound: CCn1c(-c2ccoc2)nc2cnccc21 ) is 0

# %Inh (compound: COc1ccc(-c2coc3ccc(-c4nnc(SCc5cccc(C#N)c5)o4)cc23)cc1 ) is 18

# %Inh (compound: CCC(=O)c1c(-c2ccccc2)c2cc(Cl)ccc2c(=O)n1Cc1cc(S(C)(=O)=O)n(CCC(C)(C)O)n1 ) is 15

# %Inh (compound: COc1cc(Nc2nccc(N3CCC(NC(=O)C(C)c4ccc(Cl)cc4)C3)n2)cc(OC)c1OC (stereo not shown) ) is 0

###

Tested on: IRAK1
details: concentration: 1 μM, replicates: in singlicate; n = 1
readout_label: %Inh (%)
Give the number; % is assumed, so skip it.

# %Inh (molecule: Fc1cccc(CSc2nnc(-c3ccc4c(c3)CCO4)o2)c1 ) is 21

# %Inh (molecule: Nc1ncnc2c1ncn2-c1cccc2ccccc12 ) is 27

# %Inh (molecule: CN(C)c1cc(-c2ccc3c(N)n[nH]c3c2)nc(N)n1 ) is 0

# %Inh (molecule: CCc1ccc(-c2ccc3c(c2)-c2nn(C)cc2S(=O)(=O)N3C)cc1 ) is 0

# %Inh (molecule: CCC(=O)c1c(-c2ccccc2)c2cc(Cl)ccc2c(=O)n1Cc1cc(S(C)(=O)=O)n(CCC(C)(C)O)n1 ) is 2

###

Test system: ADCK4
details: concentration: 1 μM, replicates: in singlicate; n = 1
Quick rule: %Inh of at least 8% means Fulfilled, below that means Not fulfilled.

Query: Tell me whether %Inh is at least 8% here: Cc1cccc(-c2nc(Nc3ccc4c(cnn4C)c3)c3ccccc3n2)n1 [GW876731]
Result: Not fulfilled

Query: Tell me whether %Inh is at least 8% here: Nc1nccc2scc(-c3ccc4c(c3)CCN4C(=O)Cc3ccccc3)c12 [GSK2576924]
Result: Not fulfilled

Query: Tell me whether %Inh is at least 8% here: Nc1n[nH]c2nnc(-c3ccccc3)c(-c3ccccc3)c12 [GW554060]
Result: Fulfilled

Query: Tell me whether %Inh is at least 8% here: CCC(=O)c1c(-c2ccccc2)c2cc(Cl)ccc2c(=O)n1Cc1cc(C(=O)NC2CC2)n(C)n1
Result: Fulfilled

Query: Tell me whether %Inh is at least 8% here: CCCNC(=O)Nc1ccc(Oc2ncnc3ccn(C)c23)cc1
Result: Not fulfilled

Query: Tell me whether %Inh is at least 8% here: Cc1ccc(Oc2ccc(Nc3ncnc4cc[nH]c34)cc2C)cn1
Result: Not fulfilled

Query: Tell me whether %Inh is at least 8% here: Cn1c(=O)c(F)c(Nc2ccc(I)cc2F)c2c(=O)n(OC[C@H](O)CO)cnc21
Result: Not fulfilled

Query: Tell me whether %Inh is at least 8% here: CN1C(=O)C(Nc2cc(Cl)c(O)c(Cl)c2)=C(c2ccc(Cl)cc2)C1=O [SB-404321]
Result: Fulfilled

###

Kindly supply the reported %Inh values for the records listed here.
Test system: PLK2
details: concentration: 1 μM, replicates: in singlicate; n = 1
Hey, just the number and the unit after it is fine.

# %Inh (compound: CCC(=O)c1c(-c2ccccc2)c2cc(Cl)ccc2c(=O)n1Cc1cc(S(C)(=O)=O)n(CC(F)F)n1 ) is 24%

# %Inh (compound: O=C(Nc1n[nH]c2cc(-c3ccccc3F)ccc12)C1CC1 [SB-733371] ) is 0%

# %Inh (compound: CN1C(=O)C(Nc2cc(Cl)c(O)c(Cl)c2)=C(c2ccc(Cl)cc2)C1=O [SB-404321] ) is 0%

# %Inh (compound: COc1cc(OC)cc(-c2cc3cnc(N)nc3nc2NC(=O)NC(C)(C)C)c1 ) is 0%

# %Inh (compound: Nc1nc(N)c2nc(-c3ccccc3)[nH]c2n1 [SKF-12778] ) is 0%

# %Inh (compound: CCc1nc(-c2cccc(C)c2)c(-c2ccncc2)s1 ) is 0%

# %Inh (compound: COC(=O)c1c(-c2ccccc2)c2cc(Br)ccc2c(=O)n1Cc1ccc(NC(=O)CCC(=O)O)cc1 ) is 14%

# %Inh (compound: CCC(=O)c1c(-c2ccccc2)c2cc(Cl)ccc2c(=O)n1Cc1ccc(C(=O)O)cc1 ) is 7%

# %Inh (compound: Cc1ccccc1COc1cc(-n2cnc3cc(Cl)ccc32)sc1C(N)=O [GW813349] ) is 92.4%

# %Inh (compound: O=C(Nc1n[nH]c2nc(-c3ccccc3)c(Br)cc12)C1CC1 [SB-708998] ) is 0%

# %Inh (compound: Cc1ccc(-c2ccc3c(ccc4sc5c(c43)NC[C@@H](C)N=C5N(C)C)n2)cn1 ) is 0%

# %Inh (compound: CCS(=O)c1ccc(-c2coc3ccc(-c4nnc(C)o4)cc23)cc1 (stereo not drawn) ) is 0%

###

System: PAK1
details: concentration: 1 μM, replicates: in singlicate; n = 1
readout_label: %Inh (%)
Give the number; % is assumed, so skip it.

# %Inh (compound: Fc1cccc(CSc2nnc(-c3ccc4c(c3)CCO4)o2)c1 ) is 28

# %Inh (compound: CCC(=O)c1c(-c2ccccc2)c2cc(Cl)ccc2c(=O)n1Cc1cc(S(C)(=O)=O)n(CC(N)=O)n1 ) is 32

# %Inh (compound: CN1C(=O)C(Nc2cc(Cl)c(O)c(Cl)c2)=C(c2ccc(Cl)cc2)C1=O ) is 0

# %Inh (compound: Cl.NS(=O)(=O)c1cccc(Nc2cc(-c3ccc(F)cc3)n[nH]2)c1 ) is 4

# %Inh (compound: O=C1NC(=O)C(c2ccccc2)=C1Nc1cccc(O)c1 ) is 0

# %Inh (compound: COc1ccc(-c2cc3c(C)nc(N)nc3n([C@H]3CC[C@H](O)CC3)c2=O)cn1 ) is 7

# %Inh (compound: Nc1nccc2scc(-c3ccc4c(c3)CCN4C(=O)Cc3ccccc3)c12 ) is 18

# %Inh (compound: Nc1ncnc2c1ncn2-c1cccc(F)c1 ) is 5

# %Inh (compound: Cc1ccc(-c2ccc3c(ccc4sc5c(c43)NC[C@@H](C)N=C5N(C)C)n2)cn1 ) is 0

# %Inh (compound: FC(F)(F)c1ccc(-c2ncn(CCCN3CCOCC3)c2-c2ccncc2)cc1 ) is 20

# %Inh (compound: Cc1nn2c(=O)cc(N3CCOCC3)nc2n1Cc1cccc(Cl)c1Cl ) is 9

# %Inh (compound: Cc1cc(Nc2nc(-c3cccc(C)n3)nc3ccccc23)ccn1 ) is 0

# %Inh (compound: O=c1cc(N2CCOCC2)nc2n(Cc3ccc(F)c(Cl)c3)ccn12 ) is 5

# %Inh (compound: OCCCNc1nccc(-c2c(-c3cccc(C(F)(F)F)c3)nn3cc(C(F)(F)F)ccc23)n1 ) is 0

# %Inh (compound: Cn1c(=O)c(F)c(Nc2ccc(I)cc2F)c2c(=O)n(OC[C@H](O)CO)cnc21 ) is 0

# %Inh (compound: COc1cc2ncn(-c3cc(OCc4ccncc4)c(C(N)=O)s3)c2cc1OC ) is 16

# %Inh (compound: CCn1c(-c2ccoc2)nc2cnccc21 ) is 12

# %Inh (compound: O=C(NCc1cccs1)c1cc(C(=O)c2c(Cl)cccc2Cl)c[nH]1 ) is 5

# %Inh (compound: COC(=O)c1c(-c2ccccc2)c2cc(Br)ccc2c(=O)n1Cc1ccc(NC(=O)CCC(=O)O)cc1 ) is 15
